biological target: PKR wt (Homo sapiens); assay: PKR WT Single Point Percent Activation Assay; format: biochemical
Sequence (P30613 whole entry): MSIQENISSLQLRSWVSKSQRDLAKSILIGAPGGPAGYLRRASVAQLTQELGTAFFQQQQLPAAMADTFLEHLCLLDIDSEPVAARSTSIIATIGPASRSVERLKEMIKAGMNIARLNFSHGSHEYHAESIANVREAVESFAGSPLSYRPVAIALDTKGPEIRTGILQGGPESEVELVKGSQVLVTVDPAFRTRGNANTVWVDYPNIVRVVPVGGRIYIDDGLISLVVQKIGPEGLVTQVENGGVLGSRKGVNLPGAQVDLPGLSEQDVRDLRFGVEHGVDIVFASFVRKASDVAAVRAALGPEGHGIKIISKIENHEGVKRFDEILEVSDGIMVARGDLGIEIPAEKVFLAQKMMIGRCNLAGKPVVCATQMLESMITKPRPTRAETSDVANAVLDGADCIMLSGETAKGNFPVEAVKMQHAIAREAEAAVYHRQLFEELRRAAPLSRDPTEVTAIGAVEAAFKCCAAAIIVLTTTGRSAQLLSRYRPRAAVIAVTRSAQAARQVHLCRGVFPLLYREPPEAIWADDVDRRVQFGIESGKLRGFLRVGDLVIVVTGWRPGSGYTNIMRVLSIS
Item-by-item account of activation at 1 µM

INSERT INTO measurements (molecule, measurename, measvalue) VALUES
  ('O=C(c1ccc(NS(=O)(=O)c2cccc3cccnc23)cc1)N1CC2CCC(C1)N2Cc1cc(F)cc(F)c1', 'activation at 1 µM', '101 to 500%'),
  ('O=C(c1ccc(NS(=O)(=O)c2cccc3cccnc23)cc1)N1CCN(Cc2cc(F)cc(F)c2)c2ccccc21', 'activation at 1 µM', '101 to 500%'),
  ('CC1CN(Cc2ccccc2)CC(C)N1C(=O)c1ccc(NS(=O)(=O)c2cccc3cccnc23)cc1 (centres unmarked)', 'activation at 1 µM', '101 to 500%');

Prompt: Provide PKR wt (Homo sapiens) activation at 1 µM reading for C[C@H]1CN(C(=O)OCC2CC2)CCN1C(=O)c1ccc(NS(=O)(=O)c2cccc3cccnc23)cc1 .
Response: 101 to 500%

Prompt: Provide PKR wt (Homo sapiens) activation at 1 µM reading for C[C@@H]1CN(Cc2cc(F)cc(F)c2)CCN1C(=O)c1ccc(NS(=O)(=O)c2cccc3cccnc23)cc1 .
Response: 1 to 100%

Prompt: Provide PKR wt (Homo sapiens) activation at 1 µM reading for C[C@@H]1CN(C(=O)OC2CCCCC2)CCN1C(=O)c1ccc(NS(=O)(=O)c2cccc3cccnc23)cc1 .
Response: 1 to 100%

Prompt: Provide PKR wt (Homo sapiens) activation at 1 µM reading for O=C1CN(Cc2cc(F)cc(F)c2)CCN1C(=O)c1ccc(NS(=O)(=O)c2cccc3cccnc23)cc1 .
Response: 101 to 500%

Prompt: Provide PKR wt (Homo sapiens) activation at 1 µM reading for C[C@@H]1CN(C(=O)c2ccc(NS(=O)(=O)c3cccc4cccnc34)cc2)CCN1Cc1ccccc1 .
Response: 101 to 500%

---

target: PKR R532W (Homo sapiens, UniProt P30613, R532W); experiment: PKR R532W Single Point Percent Activation Assay; type: biochemical; settings: read-out: Act, % 532W
Sequence (P30613 whole entry R532W): as the sequence (P30613 whole entry) above, with R532W counted along it
measureName: activation at 1 µM

Prompt: Look up and state reported activation at 1 µM for CC(c1ccc(F)cc1)N1CCN(C(=O)c2ccc(NS(=O)(=O)c3cccc4cccnc34)cc2)[C@H](C)C1 (stereo partly shown)
Response: 101 to 500%

Prompt: Look up and state reported activation at 1 µM for CC(c1ccc(F)cc1)N1CCN(C(=O)c2ccc(NS(=O)(=O)c3cccc4cccnc34)cc2)[C@@H](C)C1 (stereo partly shown)
Response: 101 to 500%

Prompt: Look up and state reported activation at 1 µM for C[C@@H]1CN(C(=O)O[C@@H]2CCOC2)CCN1C(=O)c1ccc(NS(=O)(=O)c2cccc3cccnc23)cc1
Response: 101 to 500%

Prompt: Look up and state reported activation at 1 µM for CC(c1cc(F)c(F)c(F)c1)N1CCN(C(=O)c2ccc(NS(=O)(=O)c3cccc4cccnc34)cc2)[C@H](C)C1 (stereo partly shown)
Response: 1 to 100%

---

Item-by-item account of activation at 1 µM
molecular target: PKR R510Q (Homo sapiens, UniProt P30613, R510Q); experiment: PKR R510Q Single Point Percent Activation Assay; type: biochemical; conditions: read-out: Act. % 510Q
Sequence (P30613 whole entry R510Q): as the sequence (P30613 whole entry) above, with R510Q counted along it

The following molecules have reported results that may help.
INSERT INTO measurements (molecule, systemundertest, measurename, measvalue) VALUES
  ('C[C@@H]1CN(C(=O)OCC2CCCO2)CCN1C(=O)c1ccc(NS(=O)(=O)c2cccc3cccnc23)cc1 (some centres unmarked)', 'PKR R510Q (Homo sapiens, UniProt P30613, R510Q)', 'activation at 1 µM', '1 to 100%'),
  ('CC(c1ccc(F)c(F)c1F)N1CCN(C(=O)c2ccc(NS(=O)(=O)c3cccc4cccnc34)cc2)[C@H](C)C1 (some centres unmarked)', 'PKR R510Q (Homo sapiens, UniProt P30613, R510Q)', 'activation at 1 µM', '1 to 100%'),
  ('CC1CN(Cc2cc(F)c(F)c(F)c2)CC(C)N1C(=O)c1ccc(NS(=O)(=O)c2cccc3cccnc23)cc1 (centres unmarked)', 'PKR R510Q (Homo sapiens, UniProt P30613, R510Q)', 'activation at 1 µM', '1 to 100%'),
  ('CC(c1ccc(Cl)c(F)c1)N1CCN(C(=O)c2ccc(NS(=O)(=O)c3cccc4cccnc34)cc2)[C@@H](C)C1 (some centres unmarked)', 'PKR R510Q (Homo sapiens, UniProt P30613, R510Q)', 'activation at 1 µM', '101 to 500%');

Could you now consider this next molecule?
Prompt: Look up and state reported activation at 1 µM for CC(c1ccc(F)cc1F)N1CCN(C(=O)c2ccc(NS(=O)(=O)c3cccc4cccnc34)cc2)[C@H](C)C1 (some centres unmarked)
Response: 1 to 100%
